For each entry below, report its MIC (μg/mL) C Strain value.
# System: Methicillin-resistant Staphylococcus aureus OC 3726 COL
# procedure details: In vitro antibacterial activity, microdilution broth MIC (NCCLS M7-A4), strain C
# Type: cell-based
# measurement conditions: cation adjusted Mueller-Hinton broth, 35° C., 16-20 hours
Numbers only, in µg/mL.

compound	system	readout name	unit spec	readout value
COC1C=COC2(C)Oc3c(C)c(O)c4c(O)c(c(C=NN5CCN(Cc6ccc(-c7ccccc7Cl)o6)CC5)c(O)c4c3C2=O)NC(=O)C(C)=CC=CC(C)C(O)C(C)C(O)C(C)C(OC(C)=O)C1C (stereo not drawn)	Methicillin-resistant Staphylococcus aureus OC 3726 COL	MIC (μg/mL) C Strain	µg/mL	0.5
COc1ccc(-c2cc(CN3CCN(N=Cc4c5c(O)c6c(O)c(C)c7c(c6c4O)C(=O)C(C)(OC=CC(OC)C(C)C(OC(C)=O)C(C)C(O)C(C)C(O)C(C)C=CC=C(C)C(=O)N5)O7)CC3)on2)cc1 (stereo not drawn)	Methicillin-resistant Staphylococcus aureus OC 3726 COL	MIC (μg/mL) C Strain	µg/mL	0.12
COC1C=COC2(C)Oc3c(C)c(O)c4c(O)c(c(C=NN5CCN(Cc6cc(-c7ccc(Cl)cc7Cl)no6)CC5)c(O)c4c3C2=O)NC(=O)C(C)=CC=CC(C)C(O)C(C)C(O)C(C)C(OC(C)=O)C1C (stereo not drawn)	Methicillin-resistant Staphylococcus aureus OC 3726 COL	MIC (μg/mL) C Strain	µg/mL	0.5

# next compound below
Task: // fetch Methicillin-resistant Staphylococcus aureus OC 3726 COL MIC (μg/mL) C Strain for COC1C=COC2(C)Oc3c(C)c(O)c4c(O)c(c(C=NN5CCN(Cc6ccc(-c7ccc(Cl)cc7)s6)CC5)c(O)c4c3C2=O)NC(=O)C(C)=CC=CC(C)C(O)C(C)C(O)C(C)C(OC(C)=O)C1C (stereo not drawn)
Result: 2

====

For each entry below, report its MIC (μg/mL) C Strain value.
# Tested on: Methicillin-resistant Staphylococcus aureus OC 3726 COL
# procedure details: In vitro antibacterial activity, microdilution broth MIC (NCCLS M7-A4), strain C
# Format: cell-based
# measurement conditions: cation adjusted Mueller-Hinton broth, 35° C., 16-20 hours
Give bare numbers, in µg/mL.

Example compounds with recorded MIC (μg/mL) C Strain:
compound	MIC (μg/mL) C Strain, µg/mL
COC1C=COC2(C)Oc3c(C)c(O)c4c(O)c(c(C=NN5CCN(Cc6onc(-c7ccc(Cl)cc7)c6C(=O)O)CC5)c(O)c4c3C2=O)NC(=O)C(C)=CC=CC(C)C(O)C(C)C(O)C(C)C(OC(C)=O)C1C (centres unmarked)	0.5
COC1C=COC2(C)Oc3c(C)c(O)c4c(O)c(c(C=NN5CCN(CCc6cc(-c7ccc(Cl)cc7)no6)CC5)c(O)c4c3C2=O)NC(=O)C(C)=CC=CC(C)C(O)C(C)C(O)C(C)C(OC(C)=O)C1C (centres unmarked)	0.25

Task: Item under review: COC1C=COC2(C)Oc3c(C)c(O)c4c(O)c(c(C=NN5CCN(Cc6cc(-c7ccc(C(F)(F)F)cc7)no6)CC5)c(O)c4c3C2=O)NC(=O)C(C)=CC=CC(C)C(O)C(C)C(O)C(C)C(OC(C)=O)C1C (centres unmarked) . Reported MIC (μg/mL) C Strain?
Result: 0.25
